Assay: Antiproliferative activity against human HUVEC cells assessed as inhibition of cell growth measured after 72 hrs by MTT assay
Assay type: toxicity, cell-based
MEASUREMENT_KIND: IC50 at 72 h (nM)
The reply should contain only the number, in nM.

IN: // query IC50 at 72 h value for entry OCCCCCCCCCC[P+](c1ccccc1)(c1ccccc1)c1ccccc1.[Br-]
OUT: 2380

IN: // query IC50 at 72 h value for entry Cc1ccc([P+](CCCCCCCCCCO)(c2ccc(C)cc2)c2ccc(C)cc2)cc1.[Br-]
OUT: 1800

All figures here come from ChEMBL document CHEMBL6182916.
